Measured AR protein degradation rate at fixed concentration (%) at 0.0005 µM values are reported for all entries that follow.
Target: AR protein (Homo sapiens)
Construct: host or cells: VCaP
Sequence (P10275 1-920): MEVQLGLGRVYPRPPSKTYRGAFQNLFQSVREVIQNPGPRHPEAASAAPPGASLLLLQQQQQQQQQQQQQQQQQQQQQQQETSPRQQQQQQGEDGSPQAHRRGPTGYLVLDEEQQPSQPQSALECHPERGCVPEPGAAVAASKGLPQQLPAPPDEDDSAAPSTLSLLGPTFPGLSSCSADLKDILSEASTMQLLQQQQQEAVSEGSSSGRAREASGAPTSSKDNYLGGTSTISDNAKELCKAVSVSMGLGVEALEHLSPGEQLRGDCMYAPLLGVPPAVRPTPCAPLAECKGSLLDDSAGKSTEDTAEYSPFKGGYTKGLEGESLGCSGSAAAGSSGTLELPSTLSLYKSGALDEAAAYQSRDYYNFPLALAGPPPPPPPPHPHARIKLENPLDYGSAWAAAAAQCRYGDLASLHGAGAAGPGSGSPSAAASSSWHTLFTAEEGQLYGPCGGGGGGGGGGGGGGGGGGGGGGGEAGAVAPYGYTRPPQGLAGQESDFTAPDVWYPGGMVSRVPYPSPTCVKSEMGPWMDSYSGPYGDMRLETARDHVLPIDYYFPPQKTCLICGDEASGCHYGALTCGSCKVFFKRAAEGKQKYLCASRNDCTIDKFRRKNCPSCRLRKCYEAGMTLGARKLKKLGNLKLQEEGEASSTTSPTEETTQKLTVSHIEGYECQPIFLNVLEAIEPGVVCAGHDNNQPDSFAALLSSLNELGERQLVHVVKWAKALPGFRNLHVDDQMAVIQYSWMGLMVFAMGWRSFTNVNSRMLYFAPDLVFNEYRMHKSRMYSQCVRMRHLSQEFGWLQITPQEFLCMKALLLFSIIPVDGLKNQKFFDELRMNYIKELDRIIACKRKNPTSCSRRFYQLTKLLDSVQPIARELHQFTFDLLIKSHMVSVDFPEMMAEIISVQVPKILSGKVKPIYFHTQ
Experiment: AR protein degradation in VCaP cells (Western blot)
Format: cell-based
Conditions: 0.5 nM, 8h

compound | result
Cn1c(=O)n(C2CCC(=O)NC2=O)c2cc3c(cc21)C1(CCN(CC2CCN(c4ccc(C(=O)N[C@H]5CC[C@H](Oc6ccc(C#N)c(Cl)c6)CC5)nn4)CC2)CC1)CO3 (stereo partly shown) | 75%
Cn1c(=O)n(C2CCC(=O)NC2=O)c2ccc3c(c21)OCC31CCN(CC2CCN(c3ccc(C(=O)N[C@H]4CC[C@H](Oc5ccc(C#N)c(Cl)c5)CC4)nn3)CC2)CC1 (stereo partly shown) | 85%
COc1cc(O[C@H]2C(C)(C)[C@H](NC(=O)c3ccc(N4CCC(N5CCC6(CC5)COc5c6ccc6c5n(C)c(=O)n6C5CCC(=O)NC5=O)CC4)cc3)C2(C)C)ccc1C#N (stereo partly shown) | 70%

Continue with the compound presented below.
Q. Reported AR protein degradation rate at fixed concentration (%) at 0.0005 µM, compound COc1cc(O[C@H]2C(C)(C)[C@H](NC(=O)c3ccc(N4CCC(C)(CN5CCC6(CCc7cc(C(=O)N[C@H]8CCC(=O)NC8=O)c(F)cc7O6)CC5)CC4)cc3)C2(C)C)ccc1C#N : ____
A. -13%
